tested on: 186277-243-T-J2-PDC complex spheroids, viability; experiment: Anticancer human tumor 186277-243-T-J2-PDC patient-derived colon adenocarcinoma cell line growth inhibition [RAS]; details: second compound 0.000949 µM; first compound 1 µM; active means viability on the fitted dose curve at most 10% of control; inactive means the rest
I would appreciate it if you answered using one of these outcomes: TRUE (active), FALSE (inactive)

Use the examples below as a reference point.
Please let me know the test result on file for Nc1ccn(C2OC(CO)C(O)C2(F)F)c(=O)n1 (centres undefined) + CCn1c(-c2cc(N3CCN(C)CC3)cnc2C(C)OC)c2c3cc(ccc31)-c1csc(n1)CC(NC(=O)C1CC1C)C(=O)N1CCCC(N1)C(=O)OCC(C)(C)C2 . TRUE

Could you check what this test reported for C=CC(=O)Nc1cc(Nc2nccc(-c3cn(C)c4ccccc34)n2)c(OC)cc1N(C)CCN(C)C + CCn1c(-c2cc(N3CCN(C)CC3)cnc2C(C)OC)c2c3cc(ccc31)-c1csc(n1)CC(NC(=O)C1CC1C)C(=O)N1CCCC(N1)C(=O)OCC(C)(C)C2 ? FALSE

// outcome(item) with item = Cc1nc(N2CCC3(CC2)COC(C)C3N)c(CO)nc1Sc1ccnc(N)c1Cl (centres undefined) + CCn1c(-c2cccnc2C(C)OC)c2c3cc(ccc31)N1CCOC(CC(NC(=O)C(C(C)C)N(C)C(=O)C3(F)CCN(C(=O)C#CC(C)(C)N(C)C)CC3)C(=O)N3CCCC(N3)C(=O)OCC(C)(C)C2)C1 FALSE

Below: the item to evaluate.
Outcome? CC(Nc1ccc2c(c1)OCCn1cc(N3C(=O)OCC3C(F)F)nc1-2)C(N)=O (centres undefined) + CCn1c(-c2cccnc2C(C)OC)c2c3cc(ccc31)N1CCOC(CC(NC(=O)C(C(C)C)N(C)C(=O)C3(F)CCN(C(=O)C#CC(C)(C)N(C)C)CC3)C(=O)N3CCCC(N3)C(=O)OCC(C)(C)C2)C1 FALSE

----------
tested on: 186277-243-T-J2-PDC complex spheroids, viability; assay: Anticancer human tumor 186277-243-T-J2-PDC cell line growth inhibition [RAS]; details: second compound 3.16 µM; first compound 1 µM; stronger effect = lower value;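 further: spheroids exposed to compounds for 7 days before viability read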
The molecules listed here are annotated with their viability, T/C.
Reply with just the number (in %).

Completed entries (count: 2):
Could you please provide reported viability, T/C for C[C@@H](NC(=O)c1ncnc(N)c1Cl)c1ncc(C(=O)Nc2cc(C(F)(F)F)c(Cl)cn2)s1 + C#Cc1c(F)ccc2cc(O)cc(-c3ncc4c(N5CC6CCC(C5)N6)nc(OCC56CCCN5CC(F)C6)nc4c3F)c12 ? Thanks! 15.4

State its viability, T/C for this molecule: CC1(O)CCCC1n1c(=O)c(C(F)F)cc2cnc(NC3CCN(S(C)(=O)=O)CC3)nc21 (stereo not given) + C#Cc1c(F)ccc2cc(O)cc(-c3ncc4c(N5CC6CCC(C5)N6)nc(OCC56CCCN5CC(F)C6)nc4c3F)c12 8.93

***
Return value of viability, T/C for input CC(=O)OC12COC1CC(O)C1(C)C(=O)C(O)C3=C(C)C(OC(=O)C(O)C(NC(=O)OC(C)(C)C)c4ccccc4)CC(O)(C(OC(=O)c4ccccc4)C21)C3(C)C (stereo not given) + C#Cc1c(F)ccc2cc(O)cc(-c3ncc4c(N5CC6CCC(C5)N6)nc(OCC56CCCN5CC(F)C6)nc4c3F)c12 , no commentary. 3.94

Return value of viability, T/C for input Nc1ccn(C2OC(CO)C(O)C2(F)F)c(=O)n1 (stereo not given) + C#Cc1c(F)ccc2cc(O)cc(-c3ncc4c(N5CC6CCC(C5)N6)nc(OCC56CCCN5CC(F)C6)nc4c3F)c12 , no commentary. 5.91

Determine its reported viability, T/C: C=CC(=O)N1CCN(c2nc(OCC3CCCN3C)nc3c(F)c(-c4nc(N)cc(C)c4C(F)(F)F)c(Cl)cc23)C(C)C1 (stereo not given) + C#Cc1c(F)ccc2cc(O)cc(-c3ncc4c(N5CC6CCC(C5)N6)nc(OCC56CCCN5CC(F)C6)nc4c3F)c12 10.9

----------
The entries below are paired with their reported viability, T/C.
tested on: 186277-243-T-J2-PDC complex spheroids, viability; test: Anticancer human tumor 186277-243-T-J2-PDC cell line growth inhibition [RAS]; conditions: second compound 0.0949 µM; first compound 0.00316 µM; stronger effect = lower value;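 further: spheroids exposed to compounds for 7 days before viability read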

Please review the entries below; each comes with its answer.
Give viability, T/C for this entry on 186277-243-T-J2-PDC complex spheroids, viability: C=CC(=O)Nc1cc(Nc2nccc(-c3cn(C)c4ccccc34)n2)c(OC)cc1N(C)CCN(C)C + CCn1c(-c2cc(N3CCN(C)CC3)cnc2C(C)OC)c2c3cc(ccc31)-c1csc(n1)CC(NC(=O)C1CC1C)C(=O)N1CCCC(N1)C(=O)OCC(C)(C)C2 7.42%

System 186277-243-T-J2-PDC complex spheroids, viability. Read-out viability, T/C. Item CCN1CCN(Cc2ccc(Nc3ncc(F)c(-c4cc(F)c5nc(C)n(C(C)C)c5c4)n3)nc2)CC1 + CCn1c(-c2cccnc2C(C)OC)c2c3cc(ccc31)N1CCOC(CC(NC(=O)C(C(C)C)N(C)C(=O)C3(F)CCN(C(=O)C#CC(C)(C)N(C)C)CC3)C(=O)N3CCCC(N3)C(=O)OCC(C)(C)C2)C1 . Report value. 118%

Given C=CC(=O)N1CCN(c2nc(OCC3CCCN3C)nc3c(F)c(-c4nc(N)cc(C)c4C(F)(F)F)c(Cl)cc23)C(C)C1 (centres undefined) + CCn1c(-c2cc(N3CCN(C)CC3)cnc2C(C)OC)c2c3cc(ccc31)-c1csc(n1)CC(NC(=O)C1CC1C)C(=O)N1CCCC(N1)C(=O)OCC(C)(C)C2 , report its viability, T/C on 186277-243-T-J2-PDC complex spheroids, viability. 7.43%

***
Write down measured viability, T/C (186277-243-T-J2-PDC complex spheroids, viability) for this compound. Nc1ccn(C2OC(CO)C(O)C2(F)F)c(=O)n1 (centres undefined) + CCn1c(-c2cccnc2C(C)OC)c2c3cc(ccc31)N1CCOC(CC(NC(=O)C(C(C)C)N(C)C(=O)C3(F)CCN(C(=O)C#CC(C)(C)N(C)C)CC3)C(=O)N3CCCC(N3)C(=O)OCC(C)(C)C2)C1 44.6%

----------
pIC50 reference
tested on: 186277-243-T-J2-PDC complex spheroids, viability; experiment: Anticancer human tumor 186277-243-T-J2-PDC cell line growth inhibition [RAS]; details: curve of first compound; second compound 0.03 µM;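 further: spheroids exposed to compounds for 7 days before viability read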
pIC50: −log10 of the molar value.

Here are 10 compounds together with their reported answers.
State pIC50 (186277-243-T-J2-PDC complex spheroids, viability) of CC1(O)CCCC1n1c(=O)c(C(F)F)cc2cnc(NC3CCN(S(C)(=O)=O)CC3)nc21 (stereo not given) + CCn1c(-c2cccnc2C(C)OC)c2c3cc(ccc31)N1CCOC(CC(NC(=O)C(C(C)C)N(C)C(=O)C3(F)CCN(C(=O)C#CC(C)(C)N(C)C)CC3)C(=O)N3CCCC(N3)C(=O)OCC(C)(C)C2)C1 . 5.36

GET pIC50 where system = 186277-243-T-J2-PDC complex spheroids, viability and item = CC(C)n1nc(-c2ccc3oc(N)nc3c2)c2c(N)ncnc21 + CCn1c(-c2cccnc2C(C)OC)c2c3cc(ccc31)N1CCOC(CC(NC(=O)C(C(C)C)N(C)C(=O)C3(F)CCN(C(=O)C#CC(C)(C)N(C)C)CC3)C(=O)N3CCCC(N3)C(=O)OCC(C)(C)C2)C1 7.24

Specify pIC50 for CCN1CCN(Cc2ccc(Nc3ncc(F)c(-c4cc(F)c5nc(C)n(C(C)C)c5c4)n3)nc2)CC1 + CCn1c(-c2cc(N3CCN(C)CC3)cnc2C(C)OC)c2c3cc(ccc31)-c1csc(n1)CC(NC(=O)C1CC1C)C(=O)N1CCCC(N1)C(=O)OCC(C)(C)C2 , system 186277-243-T-J2-PDC complex spheroids, viability. > 8.50

Find the measured pIC50 of CCc1c2c(nc3ccc(O)cc13)-c1cc3c(c(=O)n1C2)COC(=O)[C@]3(O)CC + CCn1c(-c2cc(N3CCN(C)CC3)cnc2C(C)OC)c2c3cc(ccc31)-c1csc(n1)CC(NC(=O)C1CC1C)C(=O)N1CCCC(N1)C(=O)OCC(C)(C)C2 with 186277-243-T-J2-PDC complex spheroids, viability as test system. > 9.02

Report pIC50 from 186277-243-T-J2-PDC complex spheroids, viability testing of NC1c2ccccc2OC12CCN(c1cnc3c(N4CCCc5ncccc54)n[nH]c3n1)CC2 (stereo not given) + CCn1c(-c2cc(N3CCN(C)CC3)cnc2C(C)OC)c2c3cc(ccc31)-c1csc(n1)CC(NC(=O)C1CC1C)C(=O)N1CCCC(N1)C(=O)OCC(C)(C)C2 > 7.50

Specify the recorded pIC50 for Cc1nc(N2CCC3(CC2)COC(C)C3N)c(CO)nc1Sc1ccnc(N)c1Cl (stereo not given) + CCn1c(-c2cccnc2C(C)OC)c2c3cc(ccc31)N1CCOC(CC(NC(=O)C(C(C)C)N(C)C(=O)C3(F)CCN(C(=O)C#CC(C)(C)N(C)C)CC3)C(=O)N3CCCC(N3)C(=O)OCC(C)(C)C2)C1 , system: 186277-243-T-J2-PDC complex spheroids, viability. < 5.00

Report pIC50 under test system 186277-243-T-J2-PDC complex spheroids, viability for CC1(C)CCC(Nc2ncc(C(F)(F)F)c(-c3c[nH]c4c(P(C)(C)=O)c(C#N)ccc34)n2)CN1 (stereo not given) + CCn1c(-c2cccnc2C(C)OC)c2c3cc(ccc31)N1CCOC(CC(NC(=O)C(C(C)C)N(C)C(=O)C3(F)CCN(C(=O)C#CC(C)(C)N(C)C)CC3)C(=O)N3CCCC(N3)C(=O)OCC(C)(C)C2)C1 . < 6.52

Specify pIC50 for CCN1CCN(Cc2ccc(Nc3ncc(F)c(-c4cc(F)c5nc(C)n(C(C)C)c5c4)n3)nc2)CC1 + CCn1c(-c2cccnc2C(C)OC)c2c3cc(ccc31)N1CCOC(CC(NC(=O)C(C(C)C)N(C)C(=O)C3(F)CCN(C(=O)C#CC(C)(C)N(C)C)CC3)C(=O)N3CCCC(N3)C(=O)OCC(C)(C)C2)C1 , system 186277-243-T-J2-PDC complex spheroids, viability. < 6.00

Report measured pIC50 on 186277-243-T-J2-PDC complex spheroids, viability; entry: CCC(CC)c1cc(NC2CCC(N)C2)n2nccc2n1 (stereo not given) + CCn1c(-c2cccnc2C(C)OC)c2c3cc(ccc31)N1CCOC(CC(NC(=O)C(C(C)C)N(C)C(=O)C3(F)CCN(C(=O)C#CC(C)(C)N(C)C)CC3)C(=O)N3CCCC(N3)C(=O)OCC(C)(C)C2)C1 5.72

Give pIC50; test system 186277-243-T-J2-PDC complex spheroids, viability; compound Nc1ccn(C2OC(CO)C(O)C2(F)F)c(=O)n1 (stereo not given) + CCn1c(-c2cc(N3CCN(C)CC3)cnc2C(C)OC)c2c3cc(ccc31)-c1csc(n1)CC(NC(=O)C1CC1C)C(=O)N1CCCC(N1)C(=O)OCC(C)(C)C2 > 8.50

Others:
Give reported pIC50 for CCc1c2c(nc3ccc(O)cc13)-c1cc3c(c(=O)n1C2)COC(=O)[C@]3(O)CC + CCn1c(-c2cccnc2C(C)OC)c2c3cc(ccc31)N1CCOC(CC(NC(=O)C(C(C)C)N(C)C(=O)C3(F)CCN(C(=O)C#CC(C)(C)N(C)C)CC3)C(=O)N3CCCC(N3)C(=O)OCC(C)(C)C2)C1 (186277-243-T-J2-PDC complex spheroids, viability) 7.99

State pIC50 (186277-243-T-J2-PDC complex spheroids, viability) of CC(=O)OC12COC1CC(O)C1(C)C(=O)C(O)C3=C(C)C(OC(=O)C(O)C(NC(=O)OC(C)(C)C)c4ccccc4)CC(O)(C(OC(=O)c4ccccc4)C21)C3(C)C (stereo not given) + CCn1c(-c2cccnc2C(C)OC)c2c3cc(ccc31)N1CCOC(CC(NC(=O)C(C(C)C)N(C)C(=O)C3(F)CCN(C(=O)C#CC(C)(C)N(C)C)CC3)C(=O)N3CCCC(N3)C(=O)OCC(C)(C)C2)C1 . > 7.50

Recall the reported pIC50 of C=CC(=O)Nc1cc(Nc2nccc(-c3cn(C)c4ccccc34)n2)c(OC)cc1N(C)CCN(C)C + CCn1c(-c2cc(N3CCN(C)CC3)cnc2C(C)OC)c2c3cc(ccc31)-c1csc(n1)CC(NC(=O)C1CC1C)C(=O)N1CCCC(N1)C(=O)OCC(C)(C)C2 on 186277-243-T-J2-PDC complex spheroids, viability and write it down. > 8.50

Please tell me the measured pIC50 for C[C@@H](NC(=O)c1ncnc(N)c1Cl)c1ncc(C(=O)Nc2cc(C(F)(F)F)c(Cl)cn2)s1 + CCn1c(-c2cc(N3CCN(C)CC3)cnc2C(C)OC)c2c3cc(ccc31)-c1csc(n1)CC(NC(=O)C1CC1C)C(=O)N1CCCC(N1)C(=O)OCC(C)(C)C2 ; system: 186277-243-T-J2-PDC complex spheroids, viability. > 7.50

// fetch pIC50 for O=C(c1ccc(F)c(F)c1Nc1ccc(I)cc1F)N1CC(O)([C@@H]2CCCCN2)C1 + CCn1c(-c2cccnc2C(C)OC)c2c3cc(ccc31)N1CCOC(CC(NC(=O)C(C(C)C)N(C)C(=O)C3(F)CCN(C(=O)C#CC(C)(C)N(C)C)CC3)C(=O)N3CCCC(N3)C(=O)OCC(C)(C)C2)C1 ; system: 186277-243-T-J2-PDC complex spheroids, viability 7.04
